TARGET_DESC: Progesterone receptor (Homo sapiens)
MEASUREMENT_PROTOCOL: qHTS assay to identify small molecule agonists of the progesterone receptor (PR) signaling pathway (AID 1346784); note: % is set by controls: 0 for no effect and ±100 for the full control effect; nearly all actives have a fitted effect of over 30% in size
CONDITION_PARAMETERS: PR-UAS-bla HEK293T, beta-lactamase FRET ratio, 16 h; series mostly up to 92.4 µM
Records with an inconclusive call do not appear. Activity calls are given as the source filed them. Calls come from the whole dose curve.
MEASURED_ENDPOINT: activation

>>> test_result("CCOC(=O)NC(C)(C)Cc1ccc(Cl)cc1")
"inactive"
>>> test_result("Cl/C=C/CCl")
"inactive"
>>> test_result("C=C(Cl)CCl")
"inactive"
>>> test_result("CC(C)N(Cc1ccccc1)C(=O)C(C)(C)C")
"inactive"
>>> test_result("Cc1ccc2c(c1)C1CN(C)CCC1N2 (stereo not drawn)")
"-0.799% [at 19 µM] (inactive)"
>>> test_result("NCCOS(=O)(=O)O")
"inactive"
>>> test_result("Oc1ccc2c3c1O[C@H]1[C@@H](O)C=C[C@H]4[C@@H](C2)NCC[C@@]341")
"inactive"
>>> test_result("COc1cccc([C@@]2(O)CCCC[C@@H]2CN(C)C)c1")
"inactive"
>>> test_result("O=C(Cl)C(Cl)(Cl)Cl")
"inactive"
>>> test_result("CC[C@@H](CO)NC(=O)[C@@H]1C=C2c3cccc4[nH]cc(c34)C[C@H]2N(C)C1")
"inactive"
>>> test_result("CCCOc1nn(C(=O)NS(=O)(=O)c2ccccc2C(=O)OC)c(=O)n1C")
"inactive"
>>> test_result("CC[C@H](O)C(C[C@H](C)N(C)C)(c1ccccc1)c1ccccc1")
"inactive"
>>> test_result("S=C=S")
"inactive"
>>> test_result("OP(O)c1ccccc1")
"inactive"
>>> test_result("Clc1cc2c(cc1Cl)Oc1cc(Cl)c(Cl)cc1O2")
"2.35% [at 0.349 µM] (inactive)"
>>> test_result("CS(=O)(=O)c1ccc(C(=O)C2C(=O)CCCC2=O)c(Cl)c1COCC(F)(F)F")
"inactive"
>>> test_result("CCNP(=S)(OC)O/C(C)=C/C(=O)OC(C)C (stereo not drawn)")
"inactive"
>>> test_result("CC(C)NCC(O)c1ccc([N+](=O)[O-])cc1 (stereo not drawn)")
"inactive"
>>> test_result("O=C(Cl)OCc1ccccc1")
"inactive"
>>> test_result("ClC(Cl)(Cl)Cl")
"inactive"
>>> test_result("ClCCCCl")
"inactive"
>>> test_result("CC(C)[N+](C)(CCC(C(N)=O)(c1ccccc1)c1ccccc1)C(C)C")
"inactive"
>>> test_result("CC1NCCOC1c1ccccc1 (stereo not drawn)")
"inactive"
>>> test_result("Cc1ccc(Cl)c(O)c1")
"inactive"
>>> test_result("CCCN1CCC[C@@H]2Cc3nc(N)ncc3C[C@H]21")
"inactive"
>>> test_result("CCN1CCCC1CNC(=O)C(O)(c1ccccc1)c1ccccc1 (stereo not drawn)")
"inactive"
>>> test_result("O=C(Cl)CCl")
"inactive"
>>> test_result("CC[C@@H](CO)NC(=O)[C@@H]1C=C2c3cccc4c3c(cn4C)C[C@H]2N(C)C1")
"inactive"
